tested on: MALME-3M melanoma; test: NCI-60 one-dose screen, 48 h (100 = growth as untreated, 0 = no growth, -100 = all killed); details: 10 µM
The panel holds about 83,000 compounds, 20% with a hit somewhere; the sample as a whole holds those more often.
Value Type: growth (%)
Expressed in %, but write only the number.

Below, 4 compounds whose answers are already recorded.
INPUT: Which value of growth has been reported for `Cc1cc2nc(CC(=O)c3cccc([N+](=O)[O-])c3)c(=O)[nH]c2cc1C` in the records?
OUTPUT: 98.5

INPUT: Any idea what growth was measured for CCOC(=O)C1OC1c1ccccc1 (configuration not stated) ?
OUTPUT: 103

INPUT: Looking for the measured growth of `Cc1ncc(C#N)c(N)n1` , can you help?
OUTPUT: 93.8

INPUT: Tell me the measured growth of `Cc1cccc(C(=O)N(C(C)C)C(C)C)c1` , please.
OUTPUT: 95.5

Next:
INPUT: Would you mind telling me what growth value was observed for `Cc1ccc(Cl)cc1NC(=O)N(C)CCO` ?
OUTPUT: 134

INPUT: Look at this compound and give its reported growth. `Cc1cc(=O)[nH]c(NN=C2CCCC2)n1`
OUTPUT: 108

INPUT: // returns reported growth for input `COC(=O)c1cccc(Br)c1`
OUTPUT: 111

INPUT: Suppose we examine the compound `Cc1ccc(CCCC(=O)O)c(C)c1` ; what growth value has been reported?
OUTPUT: 105

INPUT: For the compound `NC(=S)N/N=C/c1ccc(N)cc1` , what growth is on record?
OUTPUT: 104
